Source listed as ChEMBL document CHEMBL2346651.

Molecular target: Neuromedin-K receptor (Homo sapiens, UniProt P29371)
Sequence (P29371 whole entry): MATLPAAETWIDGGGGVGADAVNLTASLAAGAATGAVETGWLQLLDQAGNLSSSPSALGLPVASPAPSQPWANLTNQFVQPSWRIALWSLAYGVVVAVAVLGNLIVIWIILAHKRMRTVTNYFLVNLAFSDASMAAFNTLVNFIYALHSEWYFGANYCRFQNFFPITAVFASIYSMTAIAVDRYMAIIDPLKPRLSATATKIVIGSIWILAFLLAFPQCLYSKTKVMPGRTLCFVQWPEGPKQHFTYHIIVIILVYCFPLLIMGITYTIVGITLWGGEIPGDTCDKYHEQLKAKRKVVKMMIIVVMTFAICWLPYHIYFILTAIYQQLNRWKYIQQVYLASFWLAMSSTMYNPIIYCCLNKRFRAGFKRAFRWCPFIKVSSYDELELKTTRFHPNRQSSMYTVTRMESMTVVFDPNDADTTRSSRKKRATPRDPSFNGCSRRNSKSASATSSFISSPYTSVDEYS
Assay: Agonist activity at NK3R (unknown origin) transfected in CHO cells assessed as calcium influx […]
Residues, ends and D or L forms follow the SMILES beside them.
Would you mind telling me the reported pEC50 of each entry?
The value called pEC50 is obtained by taking minus log10 of the concentration in mol/L.

In plain terms, CSCC[C@H](NC(=O)[C@H](CC(C)C)NC(=O)CNC(=O)[C@H](Cc1ccccc1)N(C)C(=O)[C@H](Cc1ccccc1)NC(=O)[C@H](CCC(=O)O)NC(=O)[C@H](CC(=O)O)NC(=O)[C@H](Cc1cnc[nH]1)NC(=O)[C@H](CCSC)NC(=O)[C@@H](N)CC(=O)O)C(N)=O (HELM PEPTIDE1{D.M.H.D.E.F.[meF].G.L.M.[am]}$$$$V2.0) has a documented pEC50 of 10.62

In plain terms, CSCC[C@H](NC(=O)[C@H](CC(C)C)NC(=O)CNC(=O)[C@H](Cc1ccccc1)N(C)C(=O)[C@H](Cc1ccccc1)NC(=O)[C@H](CC(C)C)NC(=O)[C@H](CC(=O)O)NC(=O)[C@H](Cc1cnc[nH]1)NC(=O)[C@H](CCSC)NC(=O)[C@@H](N)CC(=O)O)C(N)=O (HELM PEPTIDE1{D.M.H.D.L.F.[meF].G.L.M.[am]}$$$$V2.0) has a documented pEC50 of 10.29

In plain terms, CSCC[C@H](NC(=O)[C@H](CC(C)C)NC(=O)CNC(=O)[C@H](Cc1ccccc1)N(C)C(=O)[C@H](Cc1ccccc1)NC(=O)[C@H](CC(=O)O)NC(=O)[C@H](CC(=O)O)NC(=O)[C@H](Cc1cnc[nH]1)NC(=O)[C@H](CCSC)NC(=O)[C@@H](N)CC(=O)O)C(N)=O (HELM PEPTIDE1{D.M.H.D.D.F.[meF].G.L.M.[am]}$$$$V2.0) has a documented pEC50 of 10.40

In plain terms, CSCC[C@H](NC(=O)[C@H](CC(C)C)NC(=O)CNC(=O)[C@H](Cc1ccccc1)N(C)C(=O)[C@H](Cc1ccccc1)NC(=O)[C@H](CC(=O)O)NC(=O)[C@H](CC(N)=O)NC(=O)[C@@H]1CCCN1C(=O)[C@H](CO)NC(=O)[C@@H]1CCCN1C(=O)[C@@H]1CCC(=O)N1)C(N)=O (HELM PEPTIDE1{[Glp].P.S.P.N.D.F.[meF].G.L.M.[am]}$$$$V2.0) has a documented pEC50 of 9.89

In plain terms, CSCC[C@H](NC(=O)[C@H](CC(C)C)NC(=O)CNC(=O)[C@H](Cc1ccccc1)N(C)C(=O)[C@H](Cc1ccccc1)NC(=O)[C@@H](NC(=O)[C@H](CC(=O)O)NC(=O)[C@H](Cc1cnc[nH]1)NC(=O)[C@H](CCSC)NC(=O)[C@@H](N)CC(=O)O)[C@@H](C)O)C(N)=O (HELM PEPTIDE1{D.M.H.D.T.F.[meF].G.L.M.[am]}$$$$V2.0) has a documented pEC50 of 10.34

In plain terms, CSCC[C@H](NC(=O)[C@H](CC(C)C)NC(=O)CNC(=O)[C@@H](NC(=O)[C@H](Cc1ccccc1)NC(=O)[C@H](CCC(=O)O)NC(=O)[C@H](CC(=O)O)NC(=O)[C@@H]1CCCN1C(=O)[C@H](CC(N)=O)NC(=O)[C@@H]1CCCN1C(=O)[C@@H]1CCC(=O)N1)C(C)C)C(N)=O (HELM PEPTIDE1{[Glp].P.N.P.D.E.F.V.G.L.M.[am]}$$$$V2.0) has a documented pEC50 of 10.10

In plain terms, CSCC[C@H](NC(=O)[C@H](CC(C)C)NC(=O)CNC(=O)[C@H](Cc1ccccc1)N(C)C(=O)[C@H](Cc1ccccc1)NC(=O)[C@H](CC(=O)O)NC(=O)[C@H](CC(=O)O)NC(=O)[C@@H]1CCCN1C(=O)[C@H](CC(N)=O)NC(=O)[C@@H]1CCCN1C(=O)[C@@H]1CCC(=O)N1)C(N)=O (HELM PEPTIDE1{[Glp].P.N.P.D.D.F.[meF].G.L.M.[am]}$$$$V2.0) has a documented pEC50 of 10.08

In plain terms, CSCC[C@H](NC(=O)[C@H](CC(C)C)NC(=O)CNC(=O)[C@H](Cc1ccccc1)N(C)C(=O)[C@H](Cc1ccccc1)NC(=O)[C@H](CC(=O)O)NC(=O)[C@H](CC(=O)O)NC(=O)[C@H](CO)NC(=O)[C@H](CCCCN)NC(=O)[C@@H]1CCCN1C(=O)[C@@H](NC(=O)[C@@H](N)CC(=O)O)C(C)C)C(N)=O (HELM PEPTIDE1{D.V.P.K.S.D.D.F.[meF].G.L.M.[am]}$$$$V2.0) has a documented pEC50 of 10.07

In plain terms, CSCC[C@H](NC(=O)[C@H](CC(C)C)NC(=O)CNC(=O)[C@H](Cc1ccccc1)N(C)C(=O)[C@H](Cc1ccccc1)NC(=O)[C@H](Cc1ccccc1)NC(=O)[C@H](CC(=O)O)NC(=O)[C@H](Cc1cnc[nH]1)NC(=O)[C@H](CCSC)NC(=O)[C@@H](N)CC(=O)O)C(N)=O (HELM PEPTIDE1{D.M.H.D.F.F.[meF].G.L.M.[am]}$$$$V2.0) has a documented pEC50 of 10.89

In plain terms, CSCC[C@H](NC(=O)[C@H](CC(C)C)NC(=O)CNC(=O)[C@H](Cc1ccccc1)N(C)C(=O)[C@H](Cc1ccccc1)NC(=O)[C@H](Cc1c[nH]c2ccccc12)NC(=O)[C@H](CC(=O)O)NC(=O)[C@H](Cc1cnc[nH]1)NC(=O)[C@H](CCSC)NC(=O)[C@@H](N)CC(=O)O)C(N)=O (HELM PEPTIDE1{D.M.H.D.W.F.[meF].G.L.M.[am]}$$$$V2.0) has a documented pEC50 of 9.55

In plain terms, CSCC[C@H](NC(=O)[C@H](CC(C)C)NC(=O)CNC(=O)[C@H](Cc1ccccc1)N(C)C(=O)[C@H](Cc1ccccc1)NC(=O)[C@H](CCCN=C(N)N)NC(=O)[C@H](CC(=O)O)NC(=O)[C@H](Cc1cnc[nH]1)NC(=O)[C@H](CCSC)NC(=O)[C@@H](N)CC(=O)O)C(N)=O (HELM PEPTIDE1{D.M.H.D.R.F.[meF].G.L.M.[am]}$$$$V2.0) has a documented pEC50 of 10.10
